Biological target: T1, Human BCMA (human, UniProt Q02223 1-54, limits assumed)
T1 construct: Soluble analyte in SPR; construct not described; also called huBCMA; B-cell maturation antigen
T1 sequence (looked up): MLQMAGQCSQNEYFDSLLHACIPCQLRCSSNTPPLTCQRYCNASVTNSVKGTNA
Test: SPR, IgG immobilised, 37 C
Recorded kon by entry
Output spec: scalar in M⁻¹ s⁻¹, unitless text.

[in] Which kon value is on record for L3.PY/L1.PS/H3.AQ (antibody, V domains shown, IgG) VH: EVQLLESGGGLVQPGGSLRLSCAASGFTFGSYAMTWVRQAPGKGLEWVSAISGSGGNTFYADSVKGRFTISRDNSKNTLYLQMNSLRAEDTAVYYCARVSPIAAQMDYWGQGTLVTVSS VL: EIVLTQSPGTLSLSPGERATLSCRASQSVSSSYPSWYQQKPGQAPRLLIYGASSRATGIPDRFSGSGSGTDFTLTISRLEPEDFAVYYCQHYPYPPSFTFGQGTKVEIK ?
[out] 3.26e+06

[in] Which kon value is on record for L3.PY/L3.KF/H3.YA (antibody, V domains shown, IgG) VH: EVQLLESGGGLVQPGGSLRLSCAASGFTFGSYAMTWVRQAPGKGLEWVSAISGSGGNTFYADSVKGRFTISRDNSKNTLYLQMNSLRAEDTAVYYCARVSPIYAGMDYWGQGTLVTVSS VL: EIVLTQSPGTLSLSPGERATLSCRASQSVSSSYLAWYQQKPGQAPRLLIYGASSRATGIPDRFSGSGSGTDFTLTISRLEPEDFAVYYCKFYPYPPSFTFGQGTKVEIK ?
[out] 3.12e+06

[in] Which kon value is on record for L3.PY/L3.KY/H2.QR (antibody, V domains shown, IgG) VH: EVQLLESGGGLVQPGGSLRLSCAASGFTFGSYAMTWVRQAPGKGLEWVSAISGSGGNTFYADQRKGRFTISRDNSKNTLYLQMNSLRAEDTAVYYCARVSPIASGMDYWGQGTLVTVSS VL: EIVLTQSPGTLSLSPGERATLSCRASQSVSSSYLAWYQQKPGQAPRLLIYGASSRATGIPDRFSGSGSGTDFTLTISRLEPEDFAVYYCKYYPYPPSFTFGQGTKVEIK ?
[out] 2.95e+06
